# target: LRRK2-NanoLuc (Homo sapiens, UniProt Q5S007)
# Construct: host or cells: HEK293
# Sequence (Q5S007 whole entry): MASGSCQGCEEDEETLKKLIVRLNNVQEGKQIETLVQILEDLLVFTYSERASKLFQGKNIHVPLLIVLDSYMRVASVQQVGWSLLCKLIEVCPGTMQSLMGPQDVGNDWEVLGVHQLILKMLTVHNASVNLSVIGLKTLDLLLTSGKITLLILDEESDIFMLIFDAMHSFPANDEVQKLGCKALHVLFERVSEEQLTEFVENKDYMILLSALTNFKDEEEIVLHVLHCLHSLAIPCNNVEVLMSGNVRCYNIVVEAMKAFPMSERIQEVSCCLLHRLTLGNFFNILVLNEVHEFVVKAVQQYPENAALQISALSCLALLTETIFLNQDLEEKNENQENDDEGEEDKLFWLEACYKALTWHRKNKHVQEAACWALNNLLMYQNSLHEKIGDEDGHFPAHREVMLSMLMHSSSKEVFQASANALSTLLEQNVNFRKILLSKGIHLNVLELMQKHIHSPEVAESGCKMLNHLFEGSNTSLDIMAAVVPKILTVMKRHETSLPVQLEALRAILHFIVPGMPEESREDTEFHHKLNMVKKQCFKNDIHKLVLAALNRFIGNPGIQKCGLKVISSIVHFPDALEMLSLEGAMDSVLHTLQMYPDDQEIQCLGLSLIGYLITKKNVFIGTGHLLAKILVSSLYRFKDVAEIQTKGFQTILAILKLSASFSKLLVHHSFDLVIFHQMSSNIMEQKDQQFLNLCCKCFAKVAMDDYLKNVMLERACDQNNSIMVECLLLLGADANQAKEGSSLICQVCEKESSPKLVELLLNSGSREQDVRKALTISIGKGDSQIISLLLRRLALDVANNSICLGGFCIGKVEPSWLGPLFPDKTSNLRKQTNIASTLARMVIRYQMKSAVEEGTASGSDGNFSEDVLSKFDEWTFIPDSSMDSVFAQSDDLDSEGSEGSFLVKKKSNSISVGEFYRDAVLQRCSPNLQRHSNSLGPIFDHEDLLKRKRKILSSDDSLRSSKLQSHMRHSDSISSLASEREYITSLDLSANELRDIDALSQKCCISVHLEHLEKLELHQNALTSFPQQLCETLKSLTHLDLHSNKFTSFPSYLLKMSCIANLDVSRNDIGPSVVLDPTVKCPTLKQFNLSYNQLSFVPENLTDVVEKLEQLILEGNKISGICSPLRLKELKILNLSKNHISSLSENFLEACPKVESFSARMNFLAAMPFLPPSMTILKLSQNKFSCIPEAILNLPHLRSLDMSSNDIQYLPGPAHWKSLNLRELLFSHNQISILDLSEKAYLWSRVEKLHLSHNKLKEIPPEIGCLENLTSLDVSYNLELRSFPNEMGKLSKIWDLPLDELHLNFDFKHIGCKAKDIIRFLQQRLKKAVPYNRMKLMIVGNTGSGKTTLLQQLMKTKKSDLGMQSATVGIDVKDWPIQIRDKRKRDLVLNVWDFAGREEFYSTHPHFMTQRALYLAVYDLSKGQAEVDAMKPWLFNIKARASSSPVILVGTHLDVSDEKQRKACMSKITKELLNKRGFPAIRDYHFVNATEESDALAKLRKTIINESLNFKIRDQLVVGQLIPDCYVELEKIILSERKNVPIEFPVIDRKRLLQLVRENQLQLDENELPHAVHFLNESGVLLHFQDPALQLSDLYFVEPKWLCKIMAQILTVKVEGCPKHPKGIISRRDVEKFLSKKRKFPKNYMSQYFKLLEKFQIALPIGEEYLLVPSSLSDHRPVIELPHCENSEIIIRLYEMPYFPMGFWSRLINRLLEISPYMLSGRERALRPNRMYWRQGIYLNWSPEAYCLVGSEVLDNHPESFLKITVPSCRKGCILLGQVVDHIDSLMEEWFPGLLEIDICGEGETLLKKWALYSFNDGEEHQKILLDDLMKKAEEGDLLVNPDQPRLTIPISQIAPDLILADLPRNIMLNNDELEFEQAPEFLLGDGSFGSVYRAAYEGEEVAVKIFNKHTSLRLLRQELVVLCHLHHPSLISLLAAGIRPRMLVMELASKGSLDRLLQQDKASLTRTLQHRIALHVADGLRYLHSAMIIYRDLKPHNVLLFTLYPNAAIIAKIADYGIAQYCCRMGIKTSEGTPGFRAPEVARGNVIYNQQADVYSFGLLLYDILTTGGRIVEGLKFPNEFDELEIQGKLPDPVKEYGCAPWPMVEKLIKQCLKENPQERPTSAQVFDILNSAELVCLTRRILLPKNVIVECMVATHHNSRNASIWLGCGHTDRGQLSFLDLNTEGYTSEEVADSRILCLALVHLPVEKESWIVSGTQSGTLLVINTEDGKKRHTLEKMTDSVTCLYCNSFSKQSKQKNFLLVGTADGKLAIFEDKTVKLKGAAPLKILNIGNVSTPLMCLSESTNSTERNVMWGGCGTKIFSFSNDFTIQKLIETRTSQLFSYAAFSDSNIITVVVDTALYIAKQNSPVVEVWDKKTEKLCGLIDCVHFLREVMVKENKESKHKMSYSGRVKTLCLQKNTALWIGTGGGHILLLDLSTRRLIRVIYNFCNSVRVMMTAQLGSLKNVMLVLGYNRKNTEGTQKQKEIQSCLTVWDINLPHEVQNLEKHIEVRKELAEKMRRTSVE
# experiment: NanoBRET binary LRRK2 binding in HEK293 lysate
# assay conditions: compound alone, lysate of HEK293 cells, LRRK2 tracer
pIC50: −log10 of the molar value.

# compound, pIC50
records = [
    ("CNc1nc(Nc2ccc(C(=O)N3CCN(C[C@H]4CC[C@H](CSC(C)(C)[C@H](NC(=O)C5(F)CC5)C(=O)N5C[C@H](O)CC5C(=O)NCc5ccc(-c6scnc6C)cc5)CC4)CC3)cc2OC)ncc1Cl (stereo partly shown)", 5.70),
]

* * *

# experiment: Plasma stability assay
# Format: in vitro ADME
# assay conditions: mouse plasma, 37 °C; read-out: T1/2 in mouse plasma
property: half-life at 2 µM (h)

# compound, measurement
measured = [
    ("CNc1nc(Nc2ccc(C(=O)N3CCN(C[C@H]4CC[C@H](CSC(C)(C)[C@H](NC(=O)C5(F)CC5)C(=O)N5C[C@H](O)CC5C(=O)NCc5ccc(-c6scnc6C)cc5)CC4)CC3)cc2OC)ncc1Cl (stereo partly shown)", 1.8),
]

* * *

# experiment: Pharmacokinetic (PK) study in mice
# Format: in vivo, C57BL/6 male mice
# assay conditions: male, C57BL/6; PO 30 mg/kg, mouse plasma
property: Tmax

# compound, measurement
records = [
    ("CNc1nc(Nc2ccc(C(=O)N3CCN(C[C@H]4CC[C@H](CSC(C)(C)[C@H](NC(=O)C5(F)CC5)C(=O)N5C[C@H](O)CC5C(=O)NCc5ccc(-c6scnc6C)cc5)CC4)CC3)cc2OC)ncc1Cl (stereo partly shown)", "2 h"),
]

* * *

# experiment: Pharmacokinetic (PK) study in mice
# Assay type: in vivo, C57BL/6 male mice
# assay conditions: male, C57BL/6; PO 30 mg/kg, mouse plasma
# Procedure: Data are mean (±standard deviation (SD)) from three mice at each time point. […] PK profiling was outsourced and undertaken by Shanghai ChemPartner Co., Ltd. All animal experiments performed were conducted in compliance with the Institutional Animal Care and Use Committee (IACUC) and the Office of Laboratory Animal Welfare (OLAW) guidelines. […] Data were analyzed by WinNonLin and Microsoft Excel.

# compound, Cmax / ng/mL
data = [
    ("CNc1nc(Nc2ccc(C(=O)N3CCN(C[C@H]4CC[C@H](CSC(C)(C)[C@H](NC(=O)C5(F)CC5)C(=O)N5C[C@H](O)CC5C(=O)NCc5ccc(-c6scnc6C)cc5)CC4)CC3)cc2OC)ncc1Cl (stereo partly shown)", 3620),
]

* * *

# experiment: Pharmacokinetic (PK) study in mice
# Format: in vivo, C57BL/6 male mice
# assay conditions: male, C57BL/6; IV 5 mg/kg, mouse plasma

# compound, u, MRT
rows = [
    ("CNc1nc(Nc2ccc(C(=O)N3CCN(C[C@H]4CC[C@H](CSC(C)(C)[C@H](NC(=O)C5(F)CC5)C(=O)N5C[C@H](O)CC5C(=O)NCc5ccc(-c6scnc6C)cc5)CC4)CC3)cc2OC)ncc1Cl (stereo partly shown)", "h", 2.45),
]

* * *

# experiment: Pharmacokinetic (PK) study in mice
# Type: in vivo, C57BL/6 male mice
# assay conditions: male, C57BL/6; IV 5 mg/kg, mouse plasma; read-out: Vss

# molecule, Vd, L/kg
data = [
    ("CNc1nc(Nc2ccc(C(=O)N3CCN(C[C@H]4CC[C@H](CSC(C)(C)[C@H](NC(=O)C5(F)CC5)C(=O)N5C[C@H](O)CC5C(=O)NCc5ccc(-c6scnc6C)cc5)CC4)CC3)cc2OC)ncc1Cl (stereo partly shown)", 0.511),
]

* * *

# target: LRRK2-NanoLuc with VCB protein (Homo sapiens, UniProt P40337+Q5S007)
# Sequence (Q5S007 whole entry, one chain of several): as the sequence (Q5S007 whole entry) above
# Sequence (Q15370 1-104 partner limits assumed, one chain of several): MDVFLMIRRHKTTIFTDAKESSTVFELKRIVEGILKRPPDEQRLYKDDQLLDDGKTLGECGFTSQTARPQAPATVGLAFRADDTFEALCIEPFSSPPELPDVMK
# Sequence (Q15369 17-112 partner limits assumed, one chain of several): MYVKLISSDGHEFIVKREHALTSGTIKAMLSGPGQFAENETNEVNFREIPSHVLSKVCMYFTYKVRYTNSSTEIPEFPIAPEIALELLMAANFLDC
# experiment: NanoBRET-based ternary binding and cooperativity assay
# assay conditions: compound preincubated with VCB, lysate of HEK293 cells, LRRK2 tracer
pIC50: −log10 of the molar value.
This section presents molecules with their documented pIC50 values.
property: pIC50

# molecule, property, measurement
data = [
    ("CNc1nc(Nc2ccc(C(=O)N3CCN(CCOCCOCCSC(C)(C)[C@H](NC(=O)C4(F)CC4)C(=O)N4C[C@H](O)C[C@H]4C(=O)NCc4ccc(-c5scnc5C)cc4)CC3)cc2OC)ncc1Cl", "pIC50", 5.85),
    ("CNc1nc(Nc2ccc(C(=O)N3CCN(C[C@H]4CC[C@H](CSC(C)(C)[C@H](NC(=O)C5(F)CC5)C(=O)N5C[C@H](O)CC5C(=O)NCc5ccc(-c6scnc6C)cc5)CC4)CC3)cc2OC)ncc1Cl (stereo partly drawn)", "pIC50", 6.46),
    ("CNc1nc(Nc2ccc(C(=O)N3CCN(C[C@H]4CC[C@@H](CSC(C)(C)[C@H](NC(=O)C5(F)CC5)C(=O)N5C[C@H](O)CC5C(=O)NCc5ccc(-c6scnc6C)cc5)CC4)CC3)cc2OC)ncc1Cl (stereo partly drawn)", "pIC50", 6.10),
]

* * *

Recorded measurements of pIC50, one per entry
# target: LRRK2-NanoLuc (Homo sapiens, UniProt Q5S007)
# Construct: host or cells: HEK293
# experiment: NanoBRET LRRK2 target engagement assay in HEK293 cells
# Assay type: binding
# assay conditions: permeabilized HEK293 cells
pIC50: −log10 of the molar value.

# compound, pIC50
records = [
    ("CNc1nc(Nc2ccc(C(=O)N3CCN(C[C@H]4CC[C@H](CSC(C)(C)[C@H](NC(=O)C5(F)CC5)C(=O)N5C[C@H](O)CC5C(=O)NCc5ccc(-c6scnc6C)cc5)CC4)CC3)cc2OC)ncc1Cl (some centres unmarked)", 5.59),
    ("CNc1nc(Nc2ccc(C(=O)N3CCN(C[C@H]4CC[C@@H](CSC(C)(C)[C@H](NC(=O)C5(F)CC5)C(=O)N5C[C@H](O)CC5C(=O)NCc5ccc(-c6scnc6C)cc5)CC4)CC3)cc2OC)ncc1Cl (some centres unmarked)", 5.70),
]

* * *

# experiment: Pharmacokinetic (PK) study in mice
# Type: in vivo, C57BL/6 male mice
# assay conditions: male, C57BL/6; IP 30 mg/kg, mouse plasma

# compound, u, Tmax
records = [
    ("CNc1nc(Nc2ccc(C(=O)N3CCN(C[C@H]4CC[C@H](CSC(C)(C)[C@H](NC(=O)C5(F)CC5)C(=O)N5C[C@H](O)CC5C(=O)NCc5ccc(-c6scnc6C)cc5)CC4)CC3)cc2OC)ncc1Cl (stereo partly shown) [XL01126]", "min", 15),
]

* * *

# target: VHL-NanoLuc (Homo sapiens)
# Sequence (P40337 whole entry): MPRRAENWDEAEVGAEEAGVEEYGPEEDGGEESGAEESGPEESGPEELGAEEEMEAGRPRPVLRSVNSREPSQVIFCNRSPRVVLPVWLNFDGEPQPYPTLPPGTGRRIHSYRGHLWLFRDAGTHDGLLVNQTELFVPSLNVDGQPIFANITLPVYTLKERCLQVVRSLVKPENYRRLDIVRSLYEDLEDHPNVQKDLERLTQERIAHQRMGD
# experiment: NanoBRET VHL target engagement assay in HEK293 cells
# assay conditions: permeabilized HEK293 cells

# compound, IC50
records = [
    ("CNc1nc(Nc2ccc(C(=O)N3CCN(C[C@H]4CC[C@H](CSC(C)(C)[C@H](NC(=O)C5(F)CC5)C(=O)N5C[C@H](O)CC5C(=O)NCc5ccc(-c6scnc6C)cc5)CC4)CC3)cc2OC)ncc1Cl (stereo partly shown)", "> 10 µM"),
]

* * *

# Test system: Rab10-pThr73
# experiment: Rab10 dephosphorylation in G2019S LRRK2 MEFs by Western blotting
# Format: cell-based, mouse
# assay conditions: Mus musculus; 4 h, G2019S LRRK2 MEFs; read-out: EC50 G2019S pRab10

# compound, EC50, µM
data = [
    ("CNc1nc(Nc2ccc(C(=O)N3CCN(C[C@H]4CC[C@H](CSC(C)(C)[C@H](NC(=O)C5(F)CC5)C(=O)N5C[C@@H](O)C[C@H]5C(=O)NCc5ccc(-c6scnc6C)cc5)CC4)CC3)cc2OC)ncc1Cl [cis-XL01126]", 0.116),
    ("CNc1nc(Nc2ccc(C(=O)N3CCOCC3)cc2OC)ncc1Cl [HG-10-102-01, reference compound]", 0.11),
    ("CNc1nc(Nc2ccc(C(=O)N3CCN(C[C@H]4CC[C@H](CSC(C)(C)[C@H](NC(=O)C5(F)CC5)C(=O)N5C[C@H](O)CC5C(=O)NCc5ccc(-c6scnc6C)cc5)CC4)CC3)cc2OC)ncc1Cl (stereo partly drawn)", 0.015),
]

* * *

# experiment: Mouse hepatocyte stability
# Format: in vitro ADME
# assay conditions: mouse hepatocytes
# Description: Fifty microliters of prewarmed hepatocytes (2 × 10^6 cells/mL) in suspension media (Krebs–Henseleit buffer (Sigma-Aldrich) containing 5.6 g/L HEPES) was mixed with 50 μL of prewarmed compound dosing solution (2 μM in Krebs–Henseleit buffer with 1% DMSO). After incubating at 37 °C for 15, 30, 60, or 120 min, 100 μL of acetonitrile containing internal standard was added to quench the reaction. For 0 min incubation, acetonitrile was mixed with hepatocytes first before adding the compound solution. […]

# molecule, CLint scaled at 1 µM
rows = [
    ("CNc1nc(Nc2ccc(C(=O)N3CCN(C[C@H]4CC[C@H](CSC(C)(C)[C@H](NC(=O)C5(F)CC5)C(=O)N5C[C@H](O)CC5C(=O)NCc5ccc(-c6scnc6C)cc5)CC4)CC3)cc2OC)ncc1Cl (stereo partly shown)", "26 mL/min/kg"),
]
